Record form. Attribute: pIC50. Fill in for each entry.
Remember, pIC50 is on a log scale: it is -log10 of the molar concentration.

Determine reported pIC50 for COc1c(O)cc2oc3cc(O)c(CC=C(C)C)c(O)c3c(=O)c2c1CC=C(C)C ; test system: porcine pancreas elastase (Sus scrofa).
Sequence (P00772 27-266): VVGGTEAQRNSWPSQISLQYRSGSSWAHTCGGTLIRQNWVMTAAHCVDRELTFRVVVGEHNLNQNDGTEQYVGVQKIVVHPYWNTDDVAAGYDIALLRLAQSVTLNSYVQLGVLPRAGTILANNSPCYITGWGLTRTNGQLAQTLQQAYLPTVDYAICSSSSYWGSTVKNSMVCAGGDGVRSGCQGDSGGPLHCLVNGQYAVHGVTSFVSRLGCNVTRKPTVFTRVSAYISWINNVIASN
4.30

Determine reported pIC50 for CC(C)=CCc1c(O)cc2oc3cc(O)c(O)c(CC=C(C)C)c3c(=O)c2c1O ; test system: porcine pancreas elastase (Sus scrofa).
3.81

Determine reported pIC50 for CC(C)=CCc1c(O)cc2oc3cc(O)c(O)c(CCC(C)(C)O)c3c(=O)c2c1O ; test system: porcine pancreas elastase (Sus scrofa).
4.31

Determine reported pIC50 for COc1c(O)cc2oc3cc(O)c(CC=C(C)C)c(O)c3c(=O)c2c1CCC(C)(C)O ; test system: porcine pancreas elastase (Sus scrofa).
4.30
